- target: human Thyroid Receptor Alpha (TRa), THRA (gene 7067) (UniProt P10827)
- Sequence (P10827 whole entry, looked up): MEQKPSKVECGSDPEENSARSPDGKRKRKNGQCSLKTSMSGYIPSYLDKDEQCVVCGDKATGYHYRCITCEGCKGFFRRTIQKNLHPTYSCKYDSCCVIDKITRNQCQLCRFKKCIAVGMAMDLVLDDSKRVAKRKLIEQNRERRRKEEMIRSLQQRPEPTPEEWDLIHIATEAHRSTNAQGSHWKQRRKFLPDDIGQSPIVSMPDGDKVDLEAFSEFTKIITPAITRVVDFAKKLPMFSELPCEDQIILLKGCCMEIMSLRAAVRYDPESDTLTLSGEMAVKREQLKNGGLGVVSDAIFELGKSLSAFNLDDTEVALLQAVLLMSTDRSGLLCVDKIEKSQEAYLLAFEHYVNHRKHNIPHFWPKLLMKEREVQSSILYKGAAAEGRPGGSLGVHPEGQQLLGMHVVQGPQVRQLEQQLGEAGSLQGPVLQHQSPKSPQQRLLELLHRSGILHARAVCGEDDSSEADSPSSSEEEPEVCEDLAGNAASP
- experiment: NVS_NR_hTRa_Antagonist: NovaScreen (NVS) Nuclear Receptor Binding Assay for human Thyroid Receptor Alpha Antagonism (TRa) (AID 2283362);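 note: activity is loss of signal relative to DMSO baseline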
Results filed as inconclusive are left out. Calls of active or inactive are those of the source. Rule for the calls: active = hit-call score of the fitted dose curve at least 0.9, where 1 is the maximum; inconclusive = response in the unintended direction; inactive = score below 0.9.
property measured: AC50

molecule=CO/C=C(/C(=O)OC)c1ccccc1Oc1cc(Oc2ccccc2C#N)ncn1 property_measured=AC50 reading=inactive
molecule=COc1ccc(C(c2ccc(OC)cc2)C(Cl)(Cl)Cl)cc1 property_measured=AC50 reading=inactive
molecule=CCCCOC(=O)c1ccccc1C(=O)OCCCC property_measured=AC50 reading="111 nM (active)"
molecule=CCNc1nc(Cl)nc(NC(C)C)n1 property_measured=AC50 reading=inactive

Now consider a different molecule.
Form: molecule = CCCCC(CC)COC(=O)c1ccccc1C(=O)OCC(CC)CCCC (stereo not given) ; AC50 = inactive
